Would you mind telling me the reported growth estimate of each entry?
# Tested on: Saccharomyces cerevisiae PS128 hsf1 delta, HSF1(1-493) fusion
# protocolText: growth estimate (transactivation domain function in HSF1 fusion, heat-shock survival) (a.u. (slope of normalised read count over time)); higher = stronger growth at 37°C, i.e. more transactivation activity
# runParameters: library: design library

Input: What growth estimate value was documented for this sequence, PFPDTQDDFGKWWRSEEAQ ?
Output: < -0.25

Input: What growth estimate value was documented for this sequence, TMDDVRNYLFDD ?
Output: < -0.25

Input: What growth estimate value was documented for this sequence, PEFPGIELQELQRLQALLQQ ?
Output: < -0.25

Input: What growth estimate value was documented for this sequence, EFNDLLDLDFILAN ?
Output: < -0.25

Input: What growth estimate value was documented for this sequence, EDDDEFSLWDSKL ?
Output: < -0.25
